System: MOLT-4
Assay Name: NCI tumour cell line growth inhibition, 48 h
The source made the active and inactive calls. No stated cut-off is given here; in the data, active = GI50 up to about 1.1 µM and inactive = higher.
Metric: GI50

Problem: GI50 for O=c1c2ccccc2nc2n1CCc1c-2[nH]c2cc3c(cc12)OCO3 ?
Solution: > 25 µM (inactive)

Hi there! I need GI50 for each item below, if you can.
1. COc1ccc(Cn2c3c(cc(OC(C)=O)c2=O)Cc2ccccc2-3)cc1
2. CC(=O)c1c(O)c2c([nH]c1=O)CCCC2
3. C[C@]12OC[C@H](c3ccccc3)N1C(=O)C1[C@H]2CC12SCCS2 (some centres not stated)

Solution:
1: 2.88 µM (inactive); 2: 8.34 µM (inactive); 3: > 100 µM (inactive)

Source: ChEMBL document CHEMBL1201862
